- target-or-system: HIV-1 RT Q91A+M184V (Human immunodeficiency virus type 1 group M subtype B, UniProt P03366, M783V/Q690A)
- test: Inhibition of reverse transcription by ddNTP inhibitors, Q91A+M184V mutant
- Format: biochemical
- test-parameters: poly rA.dT18 100 nM, dTTP 10 μM, IC50=Ki(1+[S]/Km)
readout-name: pIC50
// field semantics: pIC50 = negative decimal log of concentration (mol/L)

Lab note: Cc1cn([C@H]2CC[C@@H](COP(=O)(O)OP(=O)(O)OP(=O)(O)O)O2)c(=O)[nH]c1=O gave pIC50 of 7.24

###

- target-or-system: HIV-1 RT Q91A+M184V (Human immunodeficiency virus type 1 group M subtype B, UniProt P03366, M783V/Q690A)
- test: Inhibition of reverse transcription by ddNTP inhibitors, Q91A+M184V mutant
- Type: biochemical
- test-parameters: poly rC-dG18 100 nM, dGTP 10 μM, 37 °C 3 min
readout-name: Ki (nM)
Report the value in nM with no unit label.

Lab note: Nc1nc2c(ncn2[C@H]2CC[C@@H](COP(=O)(O)OP(=O)(O)OP(=O)(O)O)O2)c(=O)[nH]1 [ddGTP] gave Ki of 418

###

- target-or-system: UniProtKB P03366
- test: Inhibition of reverse transcription by ddNTP inhibitors, wild-type enzyme
- Type: biochemical
- test-parameters: WT; poly rA.dT18 100 nM, dTTP 10 μM, 37 °C 3 min
readout-name: pKi
// field semantics: pKi = negative decimal log of concentration (mol/L)

Lab note: Cc1cn([C@H]2CC[C@@H](COP(=O)(O)OP(=O)(O)OP(=O)(O)O)O2)c(=O)[nH]c1=O gave pKi of 8.40

###

- target-or-system: HIV-1 RT M184V (Human immunodeficiency virus type 1 group M subtype B, UniProt P03366, M783V)
- test: Inhibition of reverse transcription by ddNTP inhibitors, M184V mutant
- Format: biochemical
- test-parameters: poly rC-dG18 100 nM, dGTP 10 μM, IC50=Ki(1+[S]/Km)
readout-name: IC50 (nM)
Report the value in nM with no unit label.

Lab note: Nc1nc2c(ncn2[C@H]2CC[C@@H](COP(=O)(O)OP(=O)(O)OP(=O)(O)O)O2)c(=O)[nH]1 gave IC50 of 900

###

- target-or-system: HIV-1 RT Q91N+M184V (Human immunodeficiency virus type 1 group M subtype B, UniProt P03366, M783V/Q690N)
- test: Inhibition of reverse transcription by ddNTP inhibitors, Q91N+M184V mutant
- Type: biochemical
- test-parameters: poly rA.dT18 100 nM, dTTP 10 μM, IC50=Ki(1+[S]/Km)
readout-name: pIC50
// field semantics: pIC50 = negative decimal log of concentration (mol/L)

Lab note: Cc1cn([C@H]2CC[C@@H](COP(=O)(O)OP(=O)(O)OP(=O)(O)O)O2)c(=O)[nH]c1=O gave pIC50 of 7.44

###

- target-or-system: HIV-1 RT M184V (Human immunodeficiency virus type 1 group M subtype B, UniProt P03366, M783V)
- test: Inhibition of reverse transcription by ddNTP inhibitors, M184V mutant
- Assay type: biochemical
- test-parameters: poly rA.dT18 100 nM, dTTP 10 μM, IC50=Ki(1+[S]/Km)
readout-name: IC50 (nM)
Report the value in nM with no unit label.

Lab note: Cc1cn([C@H]2CC[C@@H](COP(=O)(O)OP(=O)(O)OP(=O)(O)O)O2)c(=O)[nH]c1=O gave IC50 of 69
